Biological target: RNA-binding protein pos-1 (Caenorhabditis elegans)
Sequence (G5EF15 whole entry): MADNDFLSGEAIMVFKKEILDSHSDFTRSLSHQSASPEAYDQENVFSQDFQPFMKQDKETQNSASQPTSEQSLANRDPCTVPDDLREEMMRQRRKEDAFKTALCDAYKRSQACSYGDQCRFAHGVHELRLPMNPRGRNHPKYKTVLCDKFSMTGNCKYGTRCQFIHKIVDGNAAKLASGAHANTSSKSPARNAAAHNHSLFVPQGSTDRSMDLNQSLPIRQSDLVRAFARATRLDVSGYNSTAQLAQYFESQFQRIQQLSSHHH
Assay: inhibitors of POS-1/mex-3 RNA binding, dose response, biochemical, fluorescence polarization (AID 1964);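 also: purified POS-1 fused to maltose binding protein made in E. coli; potency of compounds blocking POS-1 binding to fluorescent RNA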
Calls of active or inactive are those of the source.

compound: CCn1c(SCc2ccc(C)cc2)nnc1C1CCN(S(=O)(=O)c2ccc(OC)cc2)CC1
EC50: > 300 µM (not active)
//
compound: NC(=O)c1cccc(/N=C/c2cc(Cl)cc(Cl)c2O)c1
EC50: > 300 µM (not active)
//
compound: COc1ccc(C2C(C#N)=C(/N=C/N3CCOCC3)OC3=C2C(=O)CC(C)(C)C3)cc1OC (stereo unspecified)
EC50: > 300 µM (not active)
//
compound: CCOC(=O)c1ccc(CC(=O)c2ccc(O)c(O)c2O)o1
EC50: 35.5 µM (active)
//
compound: O=c1[nH]c(CN2CCc3ccccc3C2)nc2ccccc12
EC50: > 300 µM (not active)
//
compound: CCOc1ccc(/C=c2\sc3nc(-c4ccco4)nn3c2=O)cc1OCC
EC50: > 300 µM (not active)
//
compound: COC(=O)CCC(=O)OC1(C)C(=O)C=C2C=C(C3CC3)OC=C2C1=O (stereo unspecified)
EC50: 17.7 µM (active)
//
compound: COc1cccc(N2C(=O)NC(=O)/C(=C/Nc3c(C)n(C)n(-c4ccccc4)c3=O)C2=O)c1
EC50: > 300 µM (not active)
//
compound: COc1ccc(N2C(=O)NC(=O)/C(=C\c3cn(CC(=O)N4CCOCC4)c4ccccc34)C2=O)c(OC)c1
EC50: > 300 µM (not active)
//
compound: C#CCOCCOCCOCCNc1nc(N2CCN(C(=O)[C@H]([C@@H](C)CC)n3cc([C@@H](N)CO)nn3)CC2)nc(N2CCN(C(=O)[C@H]([C@@H](C)CC)n3cc([C@@H](N)CC(C)C)nn3)CC2)n1
EC50: 24.4 µM (active)
//
compound: Fc1ccc(NCc2cccnc2)cc1F
EC50: 15.4 µM (active)

----------
Target: Caspase-6 (Homo sapiens, UniProt P55212)
Sequence (P55212 24-179 limits assumed): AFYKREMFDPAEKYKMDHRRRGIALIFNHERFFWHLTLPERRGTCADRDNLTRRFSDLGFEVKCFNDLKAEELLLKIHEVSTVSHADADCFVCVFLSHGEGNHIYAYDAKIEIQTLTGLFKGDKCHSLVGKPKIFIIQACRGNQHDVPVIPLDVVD
Sequence (P55212 194-293 limits assumed): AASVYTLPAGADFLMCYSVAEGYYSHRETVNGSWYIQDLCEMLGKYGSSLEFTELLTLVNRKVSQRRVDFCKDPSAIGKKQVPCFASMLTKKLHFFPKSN
Assay: human caspase-6 inhibitors, dose response, biochemical, VEID-R110 fluorescence, cherry-pick (AID 720632)
Calls of active or inactive are those of the source.

compound: O=C1OC(Nc2cc(Br)cc3cccnc23)c2ccccc21 (centres undefined)
AC50: 11.1 µM (active)

compound: O=C(O)c1ccccc1NS(=O)(=O)c1ccc(N/N=C/c2cccc(O)c2O)c([N+](=O)[O-])c1
AC50: 6.45 µM (active)

compound: O=C(N/N=C\C=C\c1ccc([N+](=O)[O-])o1)c1cccs1
AC50: 7.38 µM (active)

compound: COc1ccc(-c2nn(-c3ccccc3)cc2C(=O)Nc2cccc(C(=O)O)c2)cc1[N+](=O)[O-]
AC50: 5.45 µM (active)
